Measured pKd of individual entries
Target: T1, Bcd homeodomain (Drosophila melanogaster, UniProt P09081-2 77-166)
T1 sequence: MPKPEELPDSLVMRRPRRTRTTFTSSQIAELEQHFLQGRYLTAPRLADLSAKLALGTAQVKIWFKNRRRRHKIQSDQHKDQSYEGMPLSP
Experiment: FP; 33 mM phosphate pH 7.0, 90 mM NaCl, 0.01% Tween 20, 0.1 mM DTT, 0.5% agarose; room temperature
Conditions: tags: N-GST (pGEX-6P-1, kept); printed reverse strand differs at base 6 of strand 1 (G / C); complement of the forward strand used
pKd: −log10 of the molar value.
result.type: pKd

• Bcd oligo 2 (dsDNA) DNA 1: TCGATGGTAATCCCTA DNA 2: TAGGGATTACCATCGA = 8.58
• Bcd oligo 9 (dsDNA) DNA 1: TCGACGATAATCCCTA DNA 2: TAGGGATTATCGTCGA = 8.42
• Bcd oligo 24 (dsDNA) DNA 1: TCGACGGTAATACCTA DNA 2: TAGGTATTACCGTCGA = 7.32
